EXPERIMENTAL_DETAILS: yeast display, Sf9 membrane polyspecificity reagent, FACS + sequencing; frameworks hold sequencing errors
OUTCOME_MEASURE: polyreactivity (PSR sort gate)

sequence_string=QVQLVESGGGLVQAGGSLRLSCAASGFIFGTYVMGWYRQAPGKERELVAAISESGGRTYYADSVKGRFTISRDNAKNTVYLQMNSLKPEDTADYYCAKLRHIRFHYYYGYQSYYYWVQGTQVTVSS outcome_measure="polyreactivity (PSR sort gate)" reported_result="high polyreactivity"
sequence_string=QVQLVESGGGLVQAGGSLRLSWAAYGRTILWYTMGWYRQAPGKERDLVADISSSGGTTFYADSVKGRFTISRDNAKNTVYLQMNSLKAVDNAVYYCKRNARKLRTVHSSVVGLDYWGQGTQVTVSS outcome_measure="polyreactivity (PSR sort gate)" reported_result="low polyreactivity"
sequence_string=QVQLVESGGGLVQAGGSLRLSCAASGRTFSYYAMGWYRQAPGKERELVAAIDDNGGTTYADSVKGRFTISRDNATNTVYLQINSLKPEDTAVYYCAKRVSYFWALRRGYWGQGTKVTVSS outcome_measure="polyreactivity (PSR sort gate)" reported_result="high polyreactivity"
sequence_string=QVQLVESGGGLVQAGGSLRLSCAASGSIFYFNAMGWYRQAPGKERELVADITSGGSTYYADSVKGRFTISRDNAKNTVYLQMNSLKPEDTAVYYCNAALPVTRSERYGSDYWGQGTQVTVSS outcome_measure="polyreactivity (PSR sort gate)" reported_result="low polyreactivity"
sequence_string=QLQHVETGGGLVQAGGSLRLSCAASGRIFIRNHMGWYRQAPGKERELVAVITRSGGRTYYADSVKGRFTISRDNANNTVYLQMNRVKPEDTAVYYCAKRQAFKQATYDYWGQGTQVTVSS outcome_measure="polyreactivity (PSR sort gate)" reported_result="low polyreactivity"

// sample QVQLVESGGGLVQAGGSLRLSCAASGYTFYPYAMGWYRQAPGKERELVAAISGGASTYYADSVKGRFTISRDNAKNTVYLHMNSLKPEDTAVYYCAVSVYTYVVWYVAATYDYWGQGTQVTVSS , its polyreactivity (PSR sort gate) was low polyreactivity

// sample QVQLVESGGGLVQAGGSLRLSCAASGSIFWYYAMGWYRQAPGKERELVASISSSGGSTYYADSVKGRFTISRDNAKNTVYLQMNSLKPEDTAVYYCAVRSPYRLSRWRVGYWGQGTQVTVSS , its polyreactivity (PSR sort gate) was high polyreactivity

// sample QVQLVESGGGLVQAGGSLRLSFAASGRIFVRYSMGWYRQAPGKERELVAAISSSGSSTYYADSVKGRFTISRDNAQNTFYLKMNCLKPEDTAVYYCAAASVRYPRYEYWGQGTQVTVSS , its polyreactivity (PSR sort gate) was high polyreactivity

// sample QVQLVESGGGLVQAGGSLRISCAASGFIFRGNTMGWYRQAPGKERELVASITRGGGRTYYADSVKGRFTISRDNAKNTVYLQMNSLKPEDTAVYYCAARTRSDNSYHGGEYWGQGTQVTVSS , its polyreactivity (PSR sort gate) was high polyreactivity

// sample QVQLVESGGGLVQAGGSLRLSCAASGFTFYRYAMGWYRQAPGKERELVATISASGGSTYYADSVKGRFTISRDNAKNTVYLQMNSLKPEDTAVYYCAVRYKSWFGFNYWGQGTQVSVSS , its polyreactivity (PSR sort gate) was high polyreactivity

// sample QVQLVESGGGLVQAGGSLRLSCAASGRIFGVYAMGWYREAPGKEREVVAAITYRGASTYADSVKGRFTISRVNAKKTVYLQMNSLKPEDTAVYYCATYPQYYFRYDYWGQGTQVTVSS , its polyreactivity (PSR sort gate) was high polyreactivity

====

EXPERIMENTAL_DETAILS: yeast display, Sf9 membrane polyspecificity reagent, FACS + sequencing; frameworks hold sequencing errors
OUTCOME_MEASURE: polyreactivity (PSR sort gate)

sequence_string=QVQLVESGGGLVQAGGSLRLSCAASGNTLYRNALGWYRQAPGKERELVAAIRLSGGSTYYADSVKGRFTISRDNAKNTVYLQMNSLKPEDTAVYYCAVRIRYYTGFYSWGQGTQVTVSS reported_result="high polyreactivity"
sequence_string=QVQLVESGGGLVQAGGSLRLSCAASGSTFRANVMGWYRQAPGKEMELVAAITSGGGSTYYADSVKGRFTISRDNAKNTVYLQMNSLKPEDTAVYYCATRPIQYRRGYDYWGQGTQVTVSS reported_result="high polyreactivity"
sequence_string=QVQLVESGGGLVQAGGSLRLSCAASGRTFTRYAMGWYRQAPGKERELVAAITSSGRTYYADSVKGRFTISRDNAKNTVYLQMNSLKPEDTAVYYCAARGVYVKYYYWGQGTQVTVSS reported_result="high polyreactivity"

====

EXPERIMENTAL_DETAILS: yeast display, Sf9 membrane polyspecificity reagent, FACS + sequencing; frameworks hold sequencing errors
OUTCOME_MEASURE: polyreactivity (PSR sort gate)

Example results:
sequence_string=KVQLVESGGGLVQAGGSLRLSCAASGRTFESYAMGWYRQAPGKERELVAAITWSGGDTYYADSVKGRFTISRDNAKNTVYLQMNSLKPEDTAVYYCAKEQGLYSVSPYDYWGLGTQVTVSS outcome_measure="polyreactivity (PSR sort gate)" reported_result="low polyreactivity"
sequence_string=QVQLVESGGGLVQAGGSLRLSCAASGRIFNGNAMGWYRQAPGKESELVAAISTSGGRTYYADSVKGRFTISRDNAKNTVYLQMNSLKPEDTAVYYCAARYFRRDYIDYDLWGQGTQVTVSS outcome_measure="polyreactivity (PSR sort gate)" reported_result="low polyreactivity"
sequence_string=QVQLVESGGGLVQAGGSLRLSCAASGRIYCGYTMGWYRPAPGKERELDATITGNGAITRYADSVKGRFTISRDNAKYTVYLQMTSLKPEDTAVYYCAADSGREPKGPFRLTYWGQGTQVTVSS outcome_measure="polyreactivity (PSR sort gate)" reported_result="high polyreactivity"
sequence_string=QVQLVESGGGLVQAGGSLSLSCAASGGIFARNVMGWYRQAPGKERELVADISGSGGSTYYADSVKGRFTISRDNAKNTVYLQMNSLKPEDTAVYYCAARTPGVSVYKDGYWGQGTQVTVSS outcome_measure="polyreactivity (PSR sort gate)" reported_result="low polyreactivity"
sequence_string=QFQLVESGRGLVQAGGSLRLSCAASGLIFRYYAMGWYRQAPGKERELVAAIRTGGSTYYADSVKGRFTISRDNAKNTVYLQMNSLKPEDTAVYYCAALLLSWYRTSYDFDYWGQGTQVTVSS outcome_measure="polyreactivity (PSR sort gate)" reported_result="high polyreactivity"

// sample QVQLVESGGGLVQAGGSLRISCAASGITFRYYAMGWSIQAPGKERELVAAITCNGGGTYADSVKGRFTISRDNAKYTVYLEMNSLKPEDTAVYSCSADYGRRWGYDYWGQGTQVTVSS , its polyreactivity (PSR sort gate) was low polyreactivity

// sample QVQLVESGGGLVQAGGSLRLSCAASGITFYRYDMVWYRQAPGKERELVAAISRSGGSTYYADSVKGRFTISRDNAKNTVYLQMNSLKPEDSAVYYCAAYILGNRDGYDYWGQGTQVTVSS , its polyreactivity (PSR sort gate) was high polyreactivity

// sample QVQLVESGGGLVQAGGSLRLSCAGSGRIFQRNDMGWYRQAPGKARELVAGITGCGGRTYYADSVKGRFTISRDNEKNTVYLQMNSLKPEDTAVYYCAAALWSSRGRVLSRRDYWGQGTQVTVSS , its polyreactivity (PSR sort gate) was high polyreactivity

// sample QVQLVESGGGLVQAGGSLRLSCAASGRTFGVNTMGWYRQAPGKERELVASISTSGGSTYADSVKGRFTISRDNAKNTVYLQMISLKPEDTAVYYCARTYYWYLRVDYWGQGTQVTVSS , its polyreactivity (PSR sort gate) was low polyreactivity

// sample QVQLVESGGGLVQAGGSLRLSCAASGRTFGIYAMGWYRQAPGKERELVAAITGRGGSTHYADSVKGRFTISRDNAKNTVYLQMNSLKPEDTAVYYCAADYRYNRGITSNKDYDYWGQGTQVTVSS , its polyreactivity (PSR sort gate) was low polyreactivity

// sample QVQLVESGGGLVQAGGSLRLSCAASGFIFRGNARGWYRQAPGKERELVAAISVRGGRTYYADSVKGRFTISRDNAKNTVYLQMNSLKPEDTAVYDCAADLYNRGRGSSQSYRTGYDYWGQGTQVTVSS , its polyreactivity (PSR sort gate) was high polyreactivity

====

EXPERIMENTAL_DETAILS: yeast display, Sf9 membrane polyspecificity reagent, FACS + sequencing; frameworks hold sequencing errors
OUTCOME_MEASURE: polyreactivity (PSR sort gate)

Example results:
sequence_string=QVQLVESGGGLVQAGGSLRLSCAASGRIFTYNAMGWSRQAPGKERELVAAISSSGGSTYYADSVKGRFTISRDIAKYTVYLHMNSLKPEDTAVYYCAADDAGFWYYFYGRYVTFDYWGQGTQVTVSS reported_result="low polyreactivity"
sequence_string=QVQLVESGGGLVQAGGSLRLSCAASGSIFTRYTMGWDRQAPRKERELVATNSSRGDGTYYADSVKGRFTISRDNAKNTVYLQMNSLKPEDTAVYYCSARYRRVLSGYGYWGHGTQVTVSS reported_result="high polyreactivity"
sequence_string=QDQLVESWGGLDKAGGSLLLICDASGSTFKFYTMGWYRQAPGKERELVATIDWSGVSTYYADSVKGRFTISRDNAKNTVYLQMNSLKPEDTAVYYCAARSLRLVGPYYYWGQGTQVTVSS reported_result="high polyreactivity"
sequence_string=QVQLVESGGGLVQAGGSLRLSCAASGSIFNNNAMGWYRQAPGKERELVADITASGGNTNYADSVKGRFTISRDNAKNTVYLQMNSLKPEDTAVYYCNAGGFYGTLFFPLDIYYVGYDYWGQGTQVTVSS reported_result="low polyreactivity"

Now, please, on to the next sequence.
// sample QLQLVESGGGLVQAGGSLRLSCAANGSTFWIYAMGWYRQAPGKERELVAAITLRSGSTYYADSVKGRFTMSRDNAKNTVYLQMNSLKPEDTAVYYCATDSWGVDRPNYNYWGQGTQVTVSS , its polyreactivity (PSR sort gate) was low polyreactivity
